Experiment: SRB cytotoxicity assay, hepatocyte HL-7702
Format: cell-based, human
Conditions: human
Excerpt: The cell lines MDA-MB-231 (No. TCHu227), A549 (No. TCHu150), and HepG2 (No. TCHu72) were obtained from the Cell Bank/Stem Cell Bank, Chinese Academy of Sciences (Shanghai, China). The cell lines DLD-1 (No. CC0507) and HCT116 (No. CC0506) were obtained from the Cell Bank of Cellcook Biotech Co., Ltd. (Guangzhou, China). Cell line HL-7702 (No. BNCC338358) was obtained from Bena Culture Collection (Zhengzhou, China). […]
EXPERIMENTAL READOUT: IC50 at 48 h

Data point: O=c1cc(-c2ccc(O)c(O)c2)oc2cc(O)cc(O)c12 ; IC50 at 48 h = > 200 µM
